Data credit: patent US8642774B2

Molecular target: human recombinant mGluR5 (Homo sapiens)
Construct: expressed in transfected cells; host or cells: HEK 293 cell line, cultured with tetracycline, hygromycin and geneticin; tetracycline is withdrawn 3-7 days before the assay
Sequence (P41594 21-1212): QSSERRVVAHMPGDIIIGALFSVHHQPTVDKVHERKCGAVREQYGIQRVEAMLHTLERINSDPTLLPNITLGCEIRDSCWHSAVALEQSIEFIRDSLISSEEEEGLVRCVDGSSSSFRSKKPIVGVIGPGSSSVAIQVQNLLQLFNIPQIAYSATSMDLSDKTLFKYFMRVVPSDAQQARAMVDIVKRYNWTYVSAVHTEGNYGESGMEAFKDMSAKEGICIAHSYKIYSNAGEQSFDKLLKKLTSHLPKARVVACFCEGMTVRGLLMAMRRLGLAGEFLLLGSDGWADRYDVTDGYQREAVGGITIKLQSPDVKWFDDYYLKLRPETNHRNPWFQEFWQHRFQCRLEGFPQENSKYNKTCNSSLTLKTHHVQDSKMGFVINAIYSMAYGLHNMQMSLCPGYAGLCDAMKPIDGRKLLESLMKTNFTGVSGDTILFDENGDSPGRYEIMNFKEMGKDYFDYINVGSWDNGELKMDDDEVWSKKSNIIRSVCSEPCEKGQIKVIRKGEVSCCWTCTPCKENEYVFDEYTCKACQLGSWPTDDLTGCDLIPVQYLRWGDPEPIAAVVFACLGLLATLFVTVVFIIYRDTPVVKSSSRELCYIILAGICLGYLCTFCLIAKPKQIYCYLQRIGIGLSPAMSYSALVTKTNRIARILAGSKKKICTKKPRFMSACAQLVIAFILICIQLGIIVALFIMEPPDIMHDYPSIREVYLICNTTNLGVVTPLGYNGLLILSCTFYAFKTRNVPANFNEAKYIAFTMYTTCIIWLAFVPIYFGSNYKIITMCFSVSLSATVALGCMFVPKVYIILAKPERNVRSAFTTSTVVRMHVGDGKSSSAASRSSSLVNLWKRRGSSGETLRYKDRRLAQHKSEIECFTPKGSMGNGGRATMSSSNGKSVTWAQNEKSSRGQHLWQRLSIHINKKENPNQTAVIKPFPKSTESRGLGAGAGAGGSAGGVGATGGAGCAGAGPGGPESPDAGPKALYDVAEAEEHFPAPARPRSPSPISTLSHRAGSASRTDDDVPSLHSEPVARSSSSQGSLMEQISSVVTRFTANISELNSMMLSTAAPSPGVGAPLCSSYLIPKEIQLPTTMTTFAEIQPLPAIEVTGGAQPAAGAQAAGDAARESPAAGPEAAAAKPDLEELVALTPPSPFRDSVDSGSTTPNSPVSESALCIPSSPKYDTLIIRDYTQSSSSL
Experiment: positive modulation of mGluR5, calcium based FLIPR assay
Format: cell-based
Conditions: EC50 of the modulation; HEK 293 cell line expressing human recombinant mGluR5; peak height of Ca fluorescence signal after glutamate at approx. 5% basal stimulation; read-out: EC50
Assignment: determine reported log10 EC50 for the given compounds.
Lab note - EC50 converted to log10 from values in nM.

Please state log10 EC50 for every compound in the list that follows.
1. CCCCCc1nc(-c2ccc(F)c(C)c2)nn1CC(=O)N1Cc2nc(C)sc2C1
2. COc1ccc2c(c1)CN(C(=O)Cn1nc(-c3ccc(F)cc3)nc1-c1ccc(F)cc1)C2

[2.30, 2.31]

Please state log10 EC50 for every compound in the list that follows.
1. COc1ncc2c(n1)CCN(C(=O)Cn1nc(-c3ccc(F)cc3)nc1-c1ccc(F)cc1)C2
2. CCCCc1nc(-c2ccc(F)c(C)c2)nn1CC(=O)N1CCc2nc(N)sc2CC1
3. CCCc1nc(-c2ccc(F)c(C)c2)nn1CC(=O)N1CCc2nc(C)sc2CC1
4. O=C(Cn1nc(-c2ccc(F)cc2)nc1-c1ccc(F)cc1)N1CCN(c2ncnc3sccc23)CC1
5. Cc1nc(N2CCN(C(=O)Cn3nc(-c4ccc(OC(F)F)cc4)nc3-c3ccccc3)CC2)no1

[2.47, 2.47, 2.66, 2.90, 1.28]
